Target: HA-tagged human ILT7 on CT-550 cells (human, UniProt P59901 24-499)
Sequence (P59901 24-499): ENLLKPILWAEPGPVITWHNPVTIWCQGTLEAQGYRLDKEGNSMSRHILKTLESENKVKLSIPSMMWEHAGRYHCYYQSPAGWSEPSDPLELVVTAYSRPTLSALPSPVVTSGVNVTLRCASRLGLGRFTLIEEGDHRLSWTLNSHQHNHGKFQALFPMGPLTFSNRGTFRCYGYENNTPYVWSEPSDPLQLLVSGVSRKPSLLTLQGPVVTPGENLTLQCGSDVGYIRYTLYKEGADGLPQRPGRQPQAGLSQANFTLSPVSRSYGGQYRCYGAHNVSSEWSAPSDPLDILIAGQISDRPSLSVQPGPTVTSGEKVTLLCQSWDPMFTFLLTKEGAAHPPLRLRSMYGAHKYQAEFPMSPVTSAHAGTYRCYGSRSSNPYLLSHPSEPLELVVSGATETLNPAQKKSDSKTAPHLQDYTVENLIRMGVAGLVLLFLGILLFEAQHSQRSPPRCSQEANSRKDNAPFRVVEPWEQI
Test: cell-based or functional assay
measurement label: ADCC EC50

Record ADCC EC50 per entry; entries follow.
1. ILT70083.2 (antibody, V domains shown, Engineered (germlined) IgG1 variant of ILT70083) VH: EVQLLESGGGLVQPGGSLRLSCAASGFTFSSYAMSWVRQAPGKGLEWVSAISGSGGSTYYADSVKGWFTISRDNSKNTLYLQMNSLRAEDTAVYYCARRTYYYDSDGHSDVFDIWGRGTLVTVSS VL: QSVLTQPPSVSAAPGQKVTISCSGSASNIGSNFVSWYQQLPGTAPKLLIYDNDKRDLGIPDRFSASISSTSATLGITGLQTGDEADYYCGTWDTSLTVGVFGGGTKLTVL
2. ILT70137 (antibody, V domains shown) VH: QVQLQQSGAEVKKPGASVKVSCKASGYTFTSYGISWVRQAPGQGLEWMGWISAYNGNTNYAQKLQGRVTMTTDTSTSTAYMELRSLRSDDTAVYYCARNGLWGWDSDAFDIWGRGTLVTVSS VL: QSALTQPASVSGSPGQSITISCTGTSSDVGGYNYVSWYQQHPGKAPKLMIYDVSNRPSGVSNRFSGSKSGNTASLTISGLQAEDEADYYCSSYTSSSTVVFGGGTKVTVL
3. ILT70083.1 (antibody, V domains shown) VH: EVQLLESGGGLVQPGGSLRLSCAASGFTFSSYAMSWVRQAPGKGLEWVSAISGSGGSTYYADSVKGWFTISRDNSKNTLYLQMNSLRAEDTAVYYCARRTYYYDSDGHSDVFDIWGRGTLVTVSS VL: QSVVTQPPSVSAAPGQKVTISCSGSASNIGSNFVSWYQQLPGTAPKLLIYDNDKRDLGIPDRFSASISSTSATLGITGLQTGDEADYYCGTWDTSLTVGVFGGGTKLTVL
4. afucosylated ILT70080.6 (antibody, V domains shown, afucosylated, also called afucosylated ILT0080.6) VH: QVQLVQSGAEVKKPGSSVKVSCKASGDSFRNYAVSWVRQAPGQGLEWMGAMMPSFGTREHSQQFQGRVTLTADESTSTAYMELSSLRSEDTAVYYCAGSRDYNAYHFWTGPPDFWGRGTLVTVSS VL: SYVLTQPPSVSVAPGKTARITCGGDSVGSTSVHWYQQKPGQAPVLVIYYNSDRPSGIPERFSGSNSGNTATLTISRVEAGDEADYYCQVWDTSSDHPEFGGGTKLTVL

[reply]
1: > 0.089 nM; 2: 0.044 nM; 3: > 0.089 nM; 4: 0.00112 nM
